Can you tell me MIC for the items I'm about to list?
# Test system: A. baumanii ATCC 19606
# TEST DETAILS: MIC assay of antibiotics with ATX-101
# Assay type: cell-based
# CONDITION SET: Acinetobacter baumannii, ATCC19606, A. baumanii ATCC 19606; APIM (ATX-101) conc. 2 μg/ml; read-out: Est MIC
Write the number in µg/mL without appending the unit.

# input # query: MIC of entry C[C@@H](O)[C@H]1C(=O)N2C(C(=O)O)=C(SCCN=CN)C[C@H]12 [Imipenem]
# output 0.125

# input # query: MIC of entry CO[C@@H]1[C@@H](OC(N)=O)[C@@H](O)[C@H](Oc2ccc3c(O)c(NC(=O)c4ccc(O)c(CC=C(C)C)c4)c(=O)oc3c2C)OC1(C)C [Novobiocin]
# output 8

# input # query: MIC of entry CC[C@@]1([C@@H]2O[C@@H]([C@H]3O[C@@](O)(CO)[C@H](C)C[C@@H]3C)C[C@@H]2C)CC[C@H]([C@]2(C)CC[C@]3(C[C@H](O)[C@@H](C)[C@@H]([C@@H](C)[C@@H](OC)[C@H](C)C(=O)O)O3)O2)O1 [Monensin]
# output 64

# input # query: MIC of entry CO[C@H]1/C=C/O[C@@]2(C)Oc3c(C)c(O)c4c(O)c(c(/C=N/N5CCN(C)CC5)c(O)c4c3C2=O)NC(=O)/C(C)=C\C=C\[C@H](C)[C@H](O)[C@@H](C)[C@@H](O)[C@@H](C)[C@H](OC(C)=O)[C@@H]1C [Rifampicin]
# output 2

###

# Tested on: Staphylococcus aureus MRSA 1040s
# TEST DETAILS: microbe, parasite or virus in culture
# Assay type: cell-based
# CONDITION SET: concentration of APIM peptide 15 μg/ml; MRSA 1040s
Ends that are not written are not given here.
Can you tell me MIC of Erythromycin (Relative values) for the items I'm about to list?

# input # query: MIC of Erythromycin (Relative values) of entry MDRWLTKWKKKRKIRRRRRRRRRRR [SEQ ID NO: 1300]
# output 100

# input # query: MIC of Erythromycin (Relative values) of entry MDRWLSKWKKKRKIRRRRRRRRRRR [SEQ ID NO: 1302]
# output 200

# input # query: MIC of Erythromycin (Relative values) of entry MDRWSVKWKKKRKIRRRRRRRRRRR [SEQ ID NO: 1298]
# output 100

# input # query: MIC of Erythromycin (Relative values) of entry MDRWLVKWKKKRKIRRRRRRRRRRR [ATX-101]
# output 125

# input # query: MIC of Erythromycin (Relative values) of entry MDRWAVKWKKKRKIRRRRRRRRRRR [SEQ ID NO: 1299]
# output 200
